// note: pIC50 values for Tyrosine-protein kinase JAK2 (Homo sapiens, UniProt O60674) were reported in different studies
pIC50: −log10 of the molar value.

| compound | pIC50 |
| --- | --- |
| CS(=O)(=O)c1ccc(C2Nc3cnc4[nH]ccc4c3N2C2CCC(C#N)CC2)cc1 (stereo in doubt) | 7.00 to 8.00 |
| COC(=O)/C=C/C(=O)OCO[C@H](C)c1nc2cnc3[nH]ccc3c2n1N1CCC(CC#N)CC1 | 7.68 |
| CC(C)NS(=O)(=O)c1ccc(NC(=O)[C@@H](C)N2CCN(c3ncnc4[nH]ccc34)CC2)cc1 | > 6.60 |
| CCCS(=O)(=O)N1CCC(n2c(-c3ccc(O)cc3O)nc3cnc4[nH]ccc4c32)C1 (stereo not drawn) | 6.00 to 7.00 |
| CCCS(=O)(=O)N1CCC(n2c([C@@H](C)O)nc3cnc4[nH]ccc4c32)C1 (stereo partly drawn) | 6.00 to 7.00 |
| C[C@@H](O)c1nc2cnc3[nH]ccc3c2n1[C@H]1CCN(CCC(F)(F)C(F)(F)F)C1 | 6.00 to 7.00 |
| N#CCCN1CCC(n2c(-c3ccc(CO)o3)nc3cnc4[nH]ccc4c32)C1 (stereo not drawn) | 7.00 to 8.00 |
| N#CC[C@H]1CC[C@H](n2c(/N=N/c3ccc(O)c(C(=O)N[C@H](CCCN=C(N)N)C(=O)O)c3)nc3cnc4[nH]ccc4c32)CC1 | 8.47 |
| C[C@@H](O)c1nc2cnc3[nH]ncc3c2n1[C@H]1C[C@@H](CO)N(CCCC#N)C1 | 6.00 to 7.00 |
| C[C@@H](O)c1nc2cnc3[nH]ccc3c2n1-c1ccc(C#N)cc1 | 6.00 to 7.00 |
| Cn1cc(-c2cn3ncnc3c(-c3ccn([C@]4(CC#N)C[C@H](C#N)C4)c3)n2)cn1 | 6.86 |
| COCC(CC#N)n1cc(-c2cccc3nc(NC(=O)C4CC4)cn23)cn1 (stereo not drawn) | 8.02 |
| C[C@@H](O)c1nc2cnc3[nH]ccc3c2n1[C@H]1CCN(CCC#N)C1 | 6.00 to 7.00 |
| CCS(=O)(=O)N1CC(CC#N)(n2cc(-c3nc(Nc4cnn(C)c4)ncc3C3CC3)cn2)C1 | > 9.00 |
| C/C=C/C(=O)Nc1cc2cc(c1)Nc1nccc(n1)-c1cccc(c1)COC/C=C/COC2 | 8.00 |
| O=C(Nc1cn2c(-c3ccc(CN4CCC(F)(F)CC4)cc3)cccc2n1)C1CC1 | 7.62 |
| C[C@@H](O)c1nc2cnc3[nH]ccc3c2n1[C@@H]1CN(CCCC(F)(F)F)CC1F (stereo partly drawn) | 6.00 to 7.00 |
| NS(=O)(=O)c1cccc(NC(=O)CN2CCN(c3nc[nH]c4nccc3-4)CC2)c1 | < 6.00 |
| CN(C)S(=O)(=O)c1cc(NC(=O)CN2CCN(c3nc[nH]c4nccc3-4)CC2)ccc1Cl | < 6.00 |
| N#CCCn1cc(-n2c(-c3ccccc3F)nc3cnc4[nH]ccc4c32)cn1 | 7.00 to 8.00 |
| C[C@@H](O)c1nc2cnc3[nH]ccc3c2n1[C@H]1CCN(CC(=O)NCC(F)(F)F)C1 | 6.00 to 7.00 |
| N#CCn1cc(-n2c(C(F)(F)F)nc3cnc4[nH]ccc4c32)cn1 | 7.00 to 8.00 |
| N#CCCn1cc(-n2c(C(F)(F)F)nc3cnc4[nH]ccc4c32)cn1 | > 8.00 |
| O=S(=O)(C1CC1)N1CCC(n2c(-c3ccc(CO)o3)nc3cnc4[nH]ccc4c32)C1 (stereo not drawn) | 7.00 to 8.00 |
| O=C(CN1CCN(c2nc[nH]c3nccc2-3)CC1)N1CCC(Cc2ccccc2)CC1 | < 6.00 |
| CCCCC(CC#N)n1cc(-c2cccc3nc(NC(=O)C4CC4)cn23)cn1 (stereo not drawn) | 8.76 |
| Cc1ccc(-c2nc3cnc4[nH]ccc4c3n2-c2cnn(CCCC#N)c2)o1 | 7.00 to 8.00 |
| CCS(=O)(=O)N1CC(CC#N)(n2cc(-c3nc(Nc4cnn(C)c4)ncc3C)cn2)C1 | > 9.00 |
| O=C(CN1CCN(c2nc[nH]c3nccc2-3)CC1)Nc1cccc(S(=O)(=O)N2CCOCC2)c1 | < 6.00 |
| N#CCN1CCC(n2c(-c3cccc(O)c3)nc3cnc4[nH]ccc4c32)C1 (stereo not drawn) | 7.00 to 8.00 |
| N#CCn1cc(-n2c(-c3ccc(CO)o3)nc3cnc4[nH]ccc4c32)cn1 | 7.00 to 8.00 |
| NS(=O)(=O)c1cccc(NC(=O)CCN2CCN(c3nc[nH]c4nccc3-4)CC2)c1 | < 6.00 |
| C=CC(=O)N1CCC(n2c(-c3ccc(O)cc3O)nc3cnc4[nH]ccc4c32)C1 (stereo not drawn) | 7.00 to 8.00 |
